Sourced from ChEMBL document CHEMBL5360655

Experiment: Oral bioavailability in BALB/c mouse at 10 mg/kg measured for 24 hrs by LC-MS/MS analysis
Type: ADME, organism-based
Conditions: in vivo
For each of the compounds below, state its bioavailability.
Answers are plain numbers, in %.

Required: bioavailability, one value per compound below.
1. CS(=O)(=O)c1ccc(-c2ncc(C(=O)NCc3cn(-c4cc(Br)ccn4)nn3)s2)cc1
2. CS(=O)(=O)c1ccc(-c2ncc(C(=O)NCc3cn(-c4cc(Cl)ccn4)nn3)s2)cc1
3. CS(=O)(=O)c1ccc(-c2nc(C(=O)NCc3cn(-c4cc(Cl)ccn4)nn3)cs2)cc1

Solution:
[17.5, 37.3, 86.4]

Required: bioavailability, one value per compound below.
1. CS(=O)(=O)c1ccc(-c2nc(C(=O)NCc3cn(-c4cc(Br)ccn4)nn3)cs2)cc1
2. O=C(NCC1(N2CCN(c3ccccc3)CC2)CCOCC1)c1cccnc1Sc1ccccc1

Solution:
39.2
49.9

---

Test: Cmax in BALB/c mouse at 10 mg/kg, po measured for 24 hrs by LC-MS/MS analysis
Type: ADME, organism-based
Parameters: time 24 hrs, dose 10 mg/kg, route po
Details: in vivo
OBSERVED_PROPERTY: Cmax (ng/mL)
Answers are plain numbers, in ng/mL.

SMILES_REPRESENTATION: CS(=O)(=O)c1ccc(-c2ncc(C(=O)NCc3cn(-c4cc(Br)ccn4)nn3)s2)cc1
OBSERVED_PROPERTY: Cmax
MEASURED_NUMBER: 1010

Required: Cmax, one value per compound below.
1. O=C(NCC1(N2CCN(c3ccccc3)CC2)CCOCC1)c1cccnc1Sc1ccccc1
2. CS(=O)(=O)c1ccc(-c2nc(C(=O)NCc3cn(-c4cc(Cl)ccn4)nn3)cs2)cc1
3. CS(=O)(=O)c1ccc(-c2ncc(C(=O)NCc3cn(-c4cc(Cl)ccn4)nn3)s2)cc1
4. CS(=O)(=O)c1ccc(-c2nc(C(=O)NCc3cn(-c4cc(Br)ccn4)nn3)cs2)cc1

Solution:
1: 270; 2: 776; 3: 6500; 4: 1300

---

Target: P2X purinoceptor 7 (Homo sapiens)
Assay: Antagonist activity at human P2X7 receptor expressed in HEK293 cells assessed as inhibition of ATP-induced receptor pore formation at 200 nM by propidium iodide dye uptake based fluorescence analysis
Type: cell-based
Calls of active or inactive are those of the source. No cut-off for these calls is given here.
OBSERVED_PROPERTY: inhibition

Please review the following examples before continuing.
SMILES_REPRESENTATION: CS(=O)(=O)c1ccc(-c2ccc(Cl)c(C(=O)NCc3cn(-c4cc(Cl)ccn4)nn3)c2)cc1
RESULT: 22.9%
--
SMILES_REPRESENTATION: CS(=O)(=O)Nc1ccc(-c2ccc(Cl)c(C(=O)NCc3cn(-c4cc(Cl)ccn4)nn3)c2)cc1
RESULT: inactive
--
SMILES_REPRESENTATION: CS(=O)(=O)Nc1ccc(-c2ncc(C(=O)NCc3cn(-c4cc(Cl)ccn4)nn3)s2)cc1
RESULT: 26.6%
--
SMILES_REPRESENTATION: CS(=O)(=O)Nc1cccc(-c2ncc(C(=O)NCc3cn(-c4cc(Cl)ccn4)nn3)s2)c1
RESULT: inactive

Turning to the following compound.
Exercise: Item: `CS(=O)(=O)c1ccc(-c2ncc(C(=O)NCc3cn(-c4ccc(Br)cn4)nn3)s2)cc1` Test system: P2X purinoceptor 7 (Homo sapiens) Read-out: inhibition Value: ?
Solution: 12.4%
